Entries and their measured Percent inhibition of LMR20 cell proliferation follow.
system: LMR20 cells; experiment: Proliferation of MDV3100-resistant LMR20 cells (MTT; with R1881 or DHT); type: cell-based, human; settings: CSS + DHT, ASO 5.0 μM, 5 days
observable: Percent inhibition of LMR20 cell proliferation

query_sequence="GTTGATTTAATGGTTG (all phosphorothioate, sugars by position not given here; further chemistry not fully specified) [ISIS 549458]" endpoint_value=70%
query_sequence="ACCAAGTTTCTTCAGC (LNA gapmer, phosphorothioate backbone, further chemistry not given here) [ISIS 554221, 3-10-3 LNA gapmer, phosphorothioate backbone, targeted to exon 4 of AR; benchmark, reference compound]" endpoint_value=36%
query_sequence="TTGATTTAATGGTTGC [ISIS 560131] (MOE and (S)-cEt gapmer chemistry, further chemistry not given here) [targets intron 1]" endpoint_value=71%
query_sequence="TGATTTAATGGTTGCA [ISIS 569236] (cEt/MOE gapmer chemistry, further chemistry not given here) [targets intron 1]" endpoint_value=57%

* * *

Known Percent inhibition of KLK3 mRNA in C4-2B MR cells of a selection of substances
tested on: KLK3 mRNA; assay: KLK3 mRNA (AR target gene) in C4-2B MR cells; type: cell-based, human; conditions: 0.04 μM
Oligonucleotides are written 5' to 3', each unit as a sugar letter and its base; * is a phosphorothioate linkage, no mark a phosphodiester; rarer units and linkages stand in square brackets, end groups in braces. Plain capitals give the bases only. e = 2'-O-(2-methoxyethyl) (MOE); l = locked nucleic acid (LNA); k = constrained ethyl (cEt); [5mC] = 5-methylcytosine; d = 2'-deoxy (DNA)
observable: Percent inhibition of KLK3 mRNA in C4-2B MR cells (%)

substance="549372 (kA*kA*kG*dT*dT*dG*dT*dA*dG*dT*dA*dG*dT*k[5mC]*kG*k[5mC]) [compound 549372]" unit_name=% endpoint_value=17
substance="347526 (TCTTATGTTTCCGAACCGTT; sugars from the 5' end e5 d10 e5, backbone and methylation of C not given here) [compound 347526]" unit_name=% endpoint_value=5
substance="549434 (k[5mC]*kT*kA*dA*dA*d[5mC]*dT*dT*d[5mC]*d[5mC]*d[5mC]*dG*dT*kG*kG*k[5mC]) [compound 549434]" unit_name=% endpoint_value=10
substance="554221 (ACCAAGTTTCTTCAGC; sugars from the 5' end l3 d10 l3, all phosphorothioate, methylation of C not given here) [compound 554221]" unit_name=% endpoint_value=0
substance="549458 (kG*kT*kT*dG*dA*dT*dT*dT*dA*dA*dT*dG*dG*kT*kT*kG) [compound 549458]" unit_name=% endpoint_value=0

* * *

test system: prostate-specific antigen (PSA) mRNA; assay: PSA mRNA levels in LMR20 cells; assay type: cell-based, human; details: LMR20 cells, DHT 10 nM 72 hrs, ASO 5.0 μM
Oligonucleotides are written 5' to 3', each unit as a sugar letter and its base; * is a phosphorothioate linkage, no mark a phosphodiester; rarer units and linkages stand in square brackets, end groups in braces. Plain capitals give the bases only. e = 2'-O-(2-methoxyethyl) (MOE); l = locked nucleic acid (LNA); k = constrained ethyl (cEt); [5mC] = 5-methylcytosine; d = 2'-deoxy (DNA)
observable: PSA mRNA levels (% baseline value) after treatment with DHT

substance="569236 (antisense eT*kG*kA*kT*dT*dT*dA*dA*dT*dG*dG*kT*kT*kG*e[5mC]*eA) [compound 569236]" endpoint_value=46
substance="560131 (antisense kT*kT*kG*dA*dT*dT*dT*dA*dA*dT*dG*dG*kT*kT*kG*e[5mC]) [compound 560131]" endpoint_value=35
substance="554221 (ACCAAGTTTCTTCAGC; sugars from the 5' end l3 d10 l3, all phosphorothioate, methylation of C not given here) [compound 554221]" endpoint_value=64
substance="549458 (kG*kT*kT*dG*dA*dT*dT*dT*dA*dA*dT*dG*dG*kT*kT*kG) [compound 549458]" endpoint_value=47
